Values were extracted from ChEMBL document CHEMBL3856187.

Target: CDK2/Cyclin A2 (Homo sapiens)
Assay: Inhibition of human full length C-terminal His6-tagged CDK2/N-terminal GST-tagged cyclin A using histone H1 as substrate after 10 mins by [gamma-32P]ATP based binding assay
Type: protein-complex assay
Quick rule for you: IC50 under 200 nM gets true, anything else gets false.

CN1CC[C@H](c2c(O)cc(O)c3c(=O)cc(-c4ccc(F)cc4)oc23)[C@H](O)C1 | true
CN1CC[C@H](c2c(O)cc(O)c3c(=O)cc(-c4ccc(Br)cc4)oc23)[C@H](O)C1 | false

Determine if CN1CC[C@H](c2c(O)cc(O)c3c(=O)cc(-c4ccc(C(F)(F)F)cc4)oc23)[C@H](O)C1 shows IC50 strictly lower than 200 nM.
false

Proceed to CN1CC[C@H](c2c(O)cc(O)c3c(=O)cc(-c4ccccc4F)oc23)[C@H](O)C1
false

Proceed to CN1CC[C@H](c2c(O)cc(O)c3c(=O)cc(-c4ccncc4)oc23)[C@H](O)C1
false
